Below is a list of entries, each paired with its recorded Fold change value.
- Tested on: Saccharomyces cerevisiae
- Assay explanation: Inhibition of SV40 T antigen-stimulated Hsp70 ATPase in yeast assessed as ATP hydrolysis relative to control
Provide a numeric answer; units are not to be included.

[in] Field request: Fold change | item: CC1=C(C(=O)OCc2ccccc2)C(c2ccc(-c3ccccc3)cc2)NC(=O)N1CCCCCC(=O)O (centres undefined)
[out] -3.5

[in] // repeat for CCCCCCN(C(=O)CCCCCN1C(=O)NC(c2ccc(-c3ccccc3)cc2)C(C(=O)OCc2ccccc2)=C1C)C(C(=O)NCCCC)c1ccc(O)cc1 (centres undefined) and report
[out] 9.2

[in] // repeat for CC1=C(C(=O)OCc2ccccc2)C(c2ccc(C(C)(C)C)cc2)NC(=O)N1CCCCCC(=O)O (centres undefined) and report
[out] -3.5

[in] // repeat for CC1=C(C(=O)OCc2ccccc2)C(C2CC2)NC(=O)N1CCCCCC(=O)O (centres undefined) and report
[out] 1

[in] // repeat for CCCCCCN(C(=O)CCCCCN1C(=O)NC(c2ccccc2-c2ccccc2)C(C(=O)OCc2ccccc2)=C1C)C(C(=O)NCCCC)c1ccc(OCC(=O)OC)c(C(=O)OC)c1 (centres undefined) and report
[out] -4

###

- System: Saccharomyces cerevisiae
- Assay explanation: Inhibition of yeast Hsp70 ATPase assessed as ATP hydrolysis relative to control
Below is a list of entries, each paired with its recorded Fold change value.

Some solved entries appear below for comparison.
[in] Find the measured Fold change: item CC1=C(C(=O)OCc2ccccc2)C(c2ccc(C(F)(F)F)cc2)NC(=O)N1CCCCCC(=O)O (stereo not drawn) , target or system Saccharomyces cerevisiae.
[out] 1.2

[in] // repeat for CCCCCCN(C(=O)CCCCCN1C(=O)NC(c2ccccc2-c2ccccc2)C(C(=O)OCc2ccccc2)=C1C)C(C(=O)NCCCC)c1ccc(OCC(=O)OC)c(C(=O)OC)c1 (stereo not drawn) and report
[out] -1.1

[in] // repeat for CC1=C(C(=O)OCc2ccccc2)C(c2ccc(C(C)(C)C)cc2)NC(=O)N1CCCCCC(=O)O (stereo not drawn) and report
[out] 1

Next:
[in] Find the measured Fold change: item CCCCNC(=O)C(c1ccc(OCC(=O)OC)c(C(=O)OC)c1)N(Cc1ccccn1)C(=O)CCCCCN1C(=O)NC(c2ccc(-c3ccccc3)cc2)C(C(=O)OCc2ccccc2)=C1C (stereo not drawn) , target or system Saccharomyces cerevisiae.
[out] 1

###

- Assay explanation: Binding affinity to Hsp90
Readout type: pKd
// scale note: pKd = -log10(conc_M); give the bare number

[in] Field request: pKd | item: N=C(N)NCCCCCCC(=O)NC(O)C(=O)NCCCCNCCCN (stereo unspecified)
[out] 5.40

###

- System: SK-BR-3
- Assay explanation: Antiproliferative activity against human SK-BR3 cells after 96 hrs by MTS assay
- Type: functional
- Measurement context: SK-BR-3, 96 h, read-out: ED50 (the source's name)
Readout type: pEC50
// scale note: pEC50 = -log10(conc_M); give the bare number

[in] Field request: pEC50 | item: CCCCCCN(C(=O)CCCCCN1C(=O)NC(c2ccc(-c3ccccc3)cc2)C(C(=O)OCc2ccccc2)=C1C)C(C(=O)NCCCC)c1ccc(OCC(=O)OC)c(C(=O)OC)c1 (stereo unspecified)
[out] 5.10

###

- Test system: Saccharomyces cerevisiae
- Assay explanation: Inhibition of yeast Hsp70 ATPase assessed as ATP hydrolysis relative to control
Readout type: Fold change
Provide a numeric answer; units are not to be included.

[in] Field request: Fold change | item: COC(=O)CCCCCN1C(=O)NC(c2ccccc2)C(C(=O)OCc2ccccc2)=C1C (stereo unspecified)
[out] 2.3

[in] // repeat for CC1=C(C(=O)OCc2ccccc2)C(C2CC2)NC(=O)N1CCCCCC(=O)O (stereo unspecified) and report
[out] 1.1

[in] // repeat for CCCCCCN(C(=O)CCCCCN1C(=O)NC(c2ccc(C(C)(C)C)cc2)C(C(=O)OCc2ccccc2)=C1C)C(C(=O)NCCCC)c1ccc(OCC(=O)OC)c(C(=O)OC)c1 (stereo unspecified) and report
[out] 1.2

[in] // repeat for CCCCCCN(C(=O)CCCCCN1C(=O)NC(c2ccc(C3CCCCC3)cc2)C(C(=O)OCc2ccccc2)=C1C)C(C(=O)NCCCC)c1ccc(OCC(=O)OC)c(C(=O)OC)c1 (stereo unspecified) and report
[out] 2.2

[in] // repeat for CCCCCCN(C(=O)CCCCCN1C(=O)NC(c2cccc([N+](=O)[O-])c2)C(C(=O)OCc2ccccc2)=C1C)C(C(=O)NCCCC)c1ccc(OCC(=O)OC)c(C(=O)OC)c1 (stereo unspecified) and report
[out] 1.1

Next:
[in] Field request: Fold change | item: CCCCCCN(C(=O)CCCCCN1C(=O)NC(c2ccc(C(F)(F)F)cc2)C(C(=O)OCc2ccccc2)=C1C)C(C(=O)NCCCC)c1ccc(OCC(=O)OC)c(C(=O)OC)c1 (stereo unspecified)
[out] 1
